Assign Growth Rate to each entry below.
- System: U2OS
- test_description: Incucyte cell viability with U2OS; also: unitless GR value; below 1 slowed growth and below 0 cell loss
- Assay type: toxicity, cell-based
- measurement_setup: human, 24 h, 10 µM, compound concentration 10 uM, replicate number 1
Give a plain numeric answer without units written out.

[Q] Returns the measured Growth Rate for the input compound. Input: O=C1N=C(NCc2cccs2)S/C1=C\c1ccc2ncccc2c1
[A] 0.64

[Q] Also check Oc1c(CN2CCCC2)cc(COCc2ccccc2)c2cccnc12
[A] 0.79

[Q] Param item: Cc1cc(-c2ccnc(Nc3cnn(C)c3)n2)ccc1CNC(=O)N1CC(OC(C)C)C1
[A] 0.89

[Q] Can you check CNC1(C)C2CCC(C2)C1(C)C.Cl (stereo not given) [MECAMYLAMINE HYDROCHLORIDE] next?
[A] 0.98

[Q] Next compound: CO[C@H]1C[C@@H]2CC[C@@H](C)[C@@](O)(O2)C(=O)C(=O)N2CCCC[C@H]2C(=O)O[C@H]([C@H](C)C[C@@H]2CC[C@@H](O)[C@H](OC)C2)CC(=O)[C@H](C)/C=C(\C)[C@@H](O)[C@@H](OC)C(=O)[C@H](C)C[C@H](C)/C=C/C=C/C=C/1C [SIROLIMUS]
[A] 0.94

---

Please provide measured Growth Rate for the entries that follow.
- Test system: Fibroblast
- test_description: Incucyte cell viability with human fibroblast; also: unitless GR value; below 1 slowed growth and below 0 cell loss
- Type: toxicity, cell-based
- measurement_setup: 0 h, 10 µM, compound concentration 10 uM, replicate number 1
Form field (numeric): enter value without unit.

[Q] Dear colleague, I am looking for the recorded Growth Rate of the following molecule: CC(=O)Oc1ccc2c(c1)[C@@]1(C)CCC[C@](C)(C(=O)OC(=O)[C@@]3(C)CCC[C@]4(C)c5cc(OC(C)=O)ccc5CC[C@@H]34)[C@@H]1CC2 [ACETYL PODOCARPIC ACID ANHYDRIDE]
[A] 0.14

[Q] Entry COc1ccc(NC(=O)[C@@H]2C[C@H](C)CC[C@H]2C(C)C)cc1 [ACOLTREMON] please
[A] 0.31

[Q] COc1cc(-c2cn[nH]c2)ccc1C(=O)Nc1ccc2c(c1)CCNCC2.Cl ?
[A] 0.68

[Q] Again, but for O=C1Nc2ccc(C(=O)c3ccco3)cc2C1=Cc1cc(Cl)c(O)c(Cl)c1 [GW406108X]
[A] -1

[Q] Now try NC1(c2ccc(-c3nc4c(O)ccnn4c3-c3ccccc3)cc2)CCC1 .
[A] -1

[Q] And for CN(C)c1ncc2cc(-c3ccc(-c4ncccc4F)cc3Cl)c(=O)n(C[C@H]3OC[C@H](N)CO3)c2n1 ?
[A] -0.2

[Q] Also, CNS(=O)(=O)c1ccc(N(C)C)c(Nc2ncnc3cc(OC)c(OC)cc23)c1 please.
[A] -1

[Q] Request: Cc1ccc(S(=O)(=O)O)cc1.Cn1cc(-c2ccc(F)c(C(F)(F)F)c2)nc1C1CCN(c2ncnc3[nH]ncc23)CC1
[A] 0.54

[Q] Could you do the same for CN(C)CCC[C@@]1(c2ccc(F)cc2)OCc2cc(C#N)ccc21 [ESCITALOPRAM] , please?
[A] -1

[Q] And what about the molecule CN(C)CCOc1ccc(/C(=C(/CCCO)c2ccccc2)c2ccc(O)cc2)cc1 ?
[A] 0.55

[Q] Likewise for O=C(O)CCCCCC[C@@H]1C(=O)NC(=O)N1CCC(O)C1CCCCC1 (stereo partly drawn) ?
[A] -0.99

[Q] Input CN[C@@H](C)C(=O)N[C@H]1CCCC[C@H]2CC[C@@H](C(=O)N[C@@H](c3ccccc3)c3cn(CCCCc4ccc(CCCCn5cc([C@@H](NC(=O)[C@@H]6CC[C@@H]7CCCC[C@H](NC(=O)[C@H](C)NC)C(=O)N76)c6ccccc6)nn5)cc4)nn3)N2C1=O
[A] 0.3

[Q] Further, for COc1ccccc1-n1nc(C2CC(C)(C)OC(C)(C)C2)cc1-c1ccc(Cl)cc1 ?
[A] -0.49

[Q] Try this molecule next: CCOC(=O)CS(=O)(=O)c1ccc([C@@H](CO)NC(=O)c2cc3c(Cl)c(Cl)c(C)cc3n2C)cc1
[A] -1

[Q] Then this molecule: COc1ccc(CCN(C)CCCC(C#N)(c2cc(OC)c(OC)c(OC)c2)C(C)C)cc1OC.Cl (stereo not drawn) [GALLOPAMIL HYDROCHLORIDE]
[A] -0.26

[Q] # iterate: CC[C@@]1(c2ccccc2)NC(=O)N(Cc2ccccc2)C1=O
[A] 0.94

[Q] For CCOC(=O)c1cncn1[C@H](C)c1ccccc1 [ETOMIDATE] then?
[A] 0.28

[Q] Okay, and CCOc1ccccc1C(=O)NCC1(N2CCN(CC)CC2)CCCCC1 ?
[A] -0.95

[Q] Consider next the molecule Cc1ccc(S(=O)(=O)O)cc1.Cn1cc(Nc2nccc(N3CC4CCC(C3)N4C(=O)[C@@H]3CC3(F)F)n2)cn1 in the same way.
[A] 0.69

[Q] Could you do the same for CN(C)C(=O)Cn1cc(-c2nc([C@@](C)(c3ccc(-c4cnc(N)nc4)cc3)C3CC3)no2)cn1 [BI 665915] , please?
[A] -1

[Q] Also check Cc1cc(-c2nc(-c3ccc(OC(F)(F)F)cc3)no2)nn1Cc1ccnc(N2CCN(C3CC3)CC2)c1
[A] -1

[Q] Entry Cl.O=C(O)CCCN1CCC[C@H]1COc1ccc(Oc2ccc(Cl)cc2)cc1 please
[A] -1

[Q] Now give it for COc1ccc(-c2coc3cc(O)cc(O)c3c2=O)cc1 [BIOCHANIN] too.
[A] 0.87

[Q] Now the molecule C=C[C@@]12CCc3cc(O)ccc3[C@H]1CC[C@@]1(C)[C@H]2CC[C@@H]1O
[A] -1

[Q] What about this molecule? CC#CC(=O)N1CCN(c2nc(-c3ccc(Oc4ccccc4)cc3)c(C(N)=O)s2)CC1
[A] 0.51

[Q] Next molecule: CC[N+](CC)(CC)CCOc1ccc(/C=C/c2ccccc2)cc1.[I-] [STILONIUM IODIDE]
[A] 0.94

[Q] Same again, this time with C[C@@]1(Cc2ccc(C#N)cc2)C(=O)N(c2cc(Cl)cc(Cl)c2)c2ncc(C(=O)NC3(c4nc(C5CCC5)no4)CC3)n21 [BI 9446]
[A] -1

[Q] Try this molecule too: O=C(O)CCCCN(CCc1cc(F)ccc1OCc1ccc(-c2ccc(C(F)(F)F)cc2)cc1)Cc1ccc(C(=O)O)cc1
[A] -1

[Q] How about Cc1cc(OC2CCS(=O)(=O)CC2)cc(C)c1-c1cccc(COc2ccc(CCC(=O)O)c(F)c2)c1 ?
[A] -0.63

[Q] Here is the next molecule: CCc1cnn2c(NCc3ccc[n+]([O-])c3)cc(N3CCCCC3CCO)nc12 (stereo not drawn)
[A] -0.96

[Q] Entry Cn1cc(-c2cnc3ccc4ccc(CS(=O)(=O)NCc5ccccn5)cc4c(=O)c3c2)cn1 [MK-8033] please
[A] -1

[Q] Also COCCc1ccc(-c2c(C)nc3c(N4CCOCC4)ccnn23)cn1 [JNJ-42396302] ?
[A] 0.07

[Q] O=C(O)c1ccc(CN2C[C@@H]3C[C@H]2CN3Cc2ccc(Oc3ccc(-c4ncco4)cc3)cc2)cc1 [ACEBILUSTAT] ?
[A] -0.98
